Tested on: MS2 coat protein
Assay: apparent KD of MS2 coat protein; designed switch direction (-1 OFF switch, 1 ON switch): -1; higher = weaker reporter binding
Conditions: Eterna round: R95; input ligand: FMN 200 uM
// apparent KD of MS2 coat protein lookup, one value per entry

| input sequence | apparent KD of MS2 coat protein |
| --- | --- |
| GAUUGACAUGAGGAUCACCCAUGUGAGGAUAUCGGCCGGACCGUGUUGGCUUCCGUCGCGAGAAGGCGCAUAGG [Exclusion 1 V39] (puzzle: Exclusion 1) | 173 nM |
| AAGAAACAUGAGGAUCACCCAUGUGAGGAUAUGAGAAAGAAAAGAAAAGAAAGAAGACUCAGAAGGCACAAAGG [salish99-ex1_r3_040] (puzzle: Exclusion 1) | 152 nM |
| UUUUAGAGAGGAUAUAUAUUGUGAAACAUGAGGAUCACCCAUGUAAUAAUAUGGAUGAAAAUAGAAGGCUCAUUUA [Mat - Exclusion 5 - JL mod - D7] (puzzle: Exclusion 5) | 52.1 nM |
| AGUACUAACACGAAAGUGUUAGUACCAUAAGCUUGUGAAACAUGAGGAUCACCCAUGUCCUCAUAAGCUCGUCUUAU [salish99_TOv2_r3_041] (puzzle: Sensor v3, turn-off variant 2) | 18.8 nM |
| UUUUAACAUGAGGAUCACCCAUGUGAGGAUAUCGUAAUUUAUAUUAAUAUUAAUAAAACGAGAAGGCACAUUUU [JMF 5] (puzzle: Exclusion 1) | 138 nM |
| AAAACACAUGAGGAUCACCCAUGUGAGGAUAUGUUAGUUUCGGCGAAAGCCGAAAUUAACAGAAGGCACAGAAA [JR_Exclusion1_Sub023] (puzzle: Exclusion 1) | 44.7 nM |
| GAAAACCUAGGAUAUACAUGAGGAUCACCCAUGUGAAAACCUCUUAAAACUUAACAAUGUAGAAGGAGGAAAAC [Azaqure] (puzzle: Exclusion 3) | 39.9 nM |
| GAGUAGUAAGGAUAUAGUAGGAGGGAGAAGAGAGGAGAGAACUAGAAGGUACAUGAGGAUCACCCAUGUUGAGA [JR_Exclu4_Sub083] (puzzle: Exclusion 4) | 18.5 nM |
| GAUUAUGCGAGCUUUAGGGACAUGAGGAUCACCCAUGUUCGUCUUAUUAAUCUGGGUACACUAGCAUACCUAAAUCU [JMF 8] (puzzle: Sensor v3, turn-off variant 1) | 26.9 nM |
| UUUUUCGAACAAGCUUCGUACAUGAGGAUCACCCAUGUUGGUAGAUUUGAGUAGGUUUGGAUGUAAGCUCGUCUUAU [JR_SV3TOV1_Sub082] (puzzle: Sensor v3, turn-off variant 1) | 98.7 nM |
| AAGAAACAUGAGGAUCACCCAUGUGAGGAUAUGACAAAGAAAAGAAAAGAAAGAAGAUUCAGAAGGCACAAAGG [salish99-ex1_r3_036] (puzzle: Exclusion 1) | 90.5 nM |

This collection of values is drawn from the supplement of paper PMC9170038.
